# System: RXF 393 (Renal Cancer)
# protocol notes: NCI one dose, RXF 393
# Assay type: cell-based, human
# cond: RXF 393, 1.00E-5 Molar one dose
measured metric: Growth Percent (%)
Provide only the numeric value, understood in %.

Growth Percent value, target or system RXF 393 (Renal Cancer), for COc1ccc(CNC(=O)[C@@H]2CS[C@@]3(C)c4ccccc4C(=O)N23)cc1 : 95.28

Growth Percent value, target or system RXF 393 (Renal Cancer), for COc1cc(CNC(=O)[C@@H]2CS[C@H]3c4ccccc4C(=O)N23)cc(OC)c1OC : 110.79

Now consider a different compound.
Growth Percent value, target or system RXF 393 (Renal Cancer), for COc1ccc(CNC(=O)[C@@H]2CS[C@H]3c4ccccc4C(=O)N23)cc1 : 117.51

* * *

Below, each of the compounds is paired with its reported Delta (One Dose Mean Graph) value.
# System: panel of 60 human cancer cell lines
# protocol notes: NCI 60 cell panel one dose screen (whole panel)
# Type: cell-based
# Parameters: unit not given here
# cond: 1.00E-5 Molar one dose
Response field accepts a number only; no unit should be typed.

Worked examples follow.
What the record says about C[C@@]12SC[C@@H](C(=O)NCc3ccccc3Br)N1C(=O)c1ccccc12 : Delta (One Dose Mean Graph) is 17.49

What the record says about COc1ccc(CNC(=O)[C@@H]2CS[C@@]3(C)c4ccccc4C(=O)N23)cc1OC : Delta (One Dose Mean Graph) is 38.86

Now consider a different compound.
What the record says about COc1ccc(CNC(=O)[C@@H]2CS[C@@]3(C)c4ccccc4C(=O)N23)cc1 : Delta (One Dose Mean Graph) is 24.39

* * *

# Tested on: A498 (Renal Cancer)
# protocol notes: NCI one dose, A498
# Format: cell-based, human
# cond: A498, 1.00E-5 Molar one dose
measured metric: Growth Percent (%)
Provide only the numeric value, understood in %.

Worked examples follow.
What the record says about COc1ccccc1CNC(=O)[C@@H]1CS[C@H]2c3ccccc3C(=O)N12 : Growth Percent is 84.76

What the record says about COc1ccc(CNC(=O)[C@@H]2CS[C@H]3c4ccccc4C(=O)N23)cc1OC : Growth Percent is 89.23

What the record says about COc1cccc(CNC(=O)[C@@H]2CS[C@H]3c4ccccc4C(=O)N23)c1 : Growth Percent is 92.71

What the record says about O=C(NCc1cccc(C(F)(F)F)c1)[C@@H]1CS[C@H]2c3ccccc3C(=O)N12 : Growth Percent is 103.16

Now consider a different molecule.
What the record says about COc1cc(CNC(=O)[C@@H]2CS[C@@]3(C)c4ccccc4C(=O)N23)cc(OC)c1OC : Growth Percent is 90.55

* * *

# Tested on: PC-3 (Prostate Cancer)
# protocol notes: NCI one dose, PC-3
# Format: cell-based, human
# cond: PC-3, 1.00E-5 Molar one dose
measured metric: Growth Percent (%)
Provide only the numeric value, understood in %.

Growth Percent value, target or system PC-3 (Prostate Cancer), for COc1cc(CNC(=O)[C@@H]2CS[C@@]3(C)c4ccccc4C(=O)N23)cc(OC)c1OC : 89.97

Growth Percent value, target or system PC-3 (Prostate Cancer), for COc1ccc(CNC(=O)[C@@H]2CS[C@H]3c4ccccc4C(=O)N23)cc1 : 90.27

Growth Percent value, target or system PC-3 (Prostate Cancer), for COc1ccc(CNC(=O)[C@@H]2CS[C@@]3(C)c4ccccc4C(=O)N23)cc1OC : 88.41

Growth Percent value, target or system PC-3 (Prostate Cancer), for COc1ccc(CNC(=O)[C@@H]2CS[C@H]3c4ccccc4C(=O)N23)cc1OC : 88.12

Growth Percent value, target or system PC-3 (Prostate Cancer), for COc1cc(CNC(=O)[C@@H]2CS[C@H]3c4ccccc4C(=O)N23)cc(OC)c1OC : 87.87

Continuing:
Growth Percent value, target or system PC-3 (Prostate Cancer), for C[C@@]12SC[C@@H](C(=O)NCc3ccccc3)N1C(=O)c1ccccc12 : 90.34
